Reference source: patent US20070112018A1

test: physchem; format: physicochemical; details: pH 7.4, aqueous buffer; physiological pH; read-out: solubility in water
RECORDED_METRIC: solubility

1. CO[C@H]1/C=C/O[C@@]2(C)Oc3c(C)c(O)c4c(=O)c(c5oc6cc(N7CCN(CC(C)C)CC7)cc(O)c6nc-5c4c3C2=O)NC(=O)/C(C)=C\C=C\[C@H](C)[C@H](O)[C@@H](C)[C@@H](O)[C@@H](C)[C@H](OC(C)=O)[C@@H]1C ... ~0.2 µg/mL

----------
assay: Phase 1 Study ABI-1648-006, single oral dose pharmacokinetics; conditions: male, human, plasma, po, 25 mg, AUC0−∞ GMean (geometric mean), males, single oral dose 25 mg
RECORDED_METRIC: AUC(0-inf)

1. CO[C@H]1/C=C/O[C@@]2(C)Oc3c(C)c(O)c4c(=O)c(c5oc6cc(N7CCN(CC(C)C)CC7)cc(O)c6nc-5c4c3C2=O)NC(=O)/C(C)=C\C=C\[C@H](C)[C@H](O)[C@@H](C)[C@@H](O)[C@@H](C)[C@H](OC(C)=O)[C@@H]1C [rifalazil] ... 656 ng·h/mL

----------
test: Phase 1 Study ABI-1648-006, single oral dose pharmacokinetics; conditions: male, human, plasma, po, 12.5 mg, AUC0−∞ Mean, males, single oral dose 12.5 mg
RECORDED_METRIC: AUC(0-inf) (ng·h/mL)

1. CO[C@H]1/C=C/O[C@@]2(C)Oc3c(C)c(O)c4c(=O)c(c5oc6cc(N7CCN(CC(C)C)CC7)cc(O)c6nc-5c4c3C2=O)NC(=O)/C(C)=C\C=C\[C@H](C)[C@H](O)[C@@H](C)[C@@H](O)[C@@H](C)[C@H](OC(C)=O)[C@@H]1C [rifalazil] ... 552

----------
assay: Phase 1 Study ABI-1648-006, multiple oral dose pharmacokinetics; details: female, human, plasma, oral, 5 mg
RECORDED_METRIC: Tmax (h)

1) CO[C@H]1/C=C/O[C@@]2(C)Oc3c(C)c(O)c4c(=O)c(c5oc6cc(N7CCN(CC(C)C)CC7)cc(O)c6nc-5c4c3C2=O)NC(=O)/C(C)=C\C=C\[C@H](C)[C@H](O)[C@@H](C)[C@@H](O)[C@@H](C)[C@H](OC(C)=O)[C@@H]1C ... 5.3

----------
experiment: Phase 1 Study ABI-1648-006, single oral dose pharmacokinetics; conditions: male, human, plasma, po, 12.5 mg, Cmax GMean (geometric mean), males, single oral dose 12.5 mg
RECORDED_METRIC: Cmax (ng/mL)

1) CO[C@H]1/C=C/O[C@@]2(C)Oc3c(C)c(O)c4c(=O)c(c5oc6cc(N7CCN(CC(C)C)CC7)cc(O)c6nc-5c4c3C2=O)NC(=O)/C(C)=C\C=C\[C@H](C)[C@H](O)[C@@H](C)[C@@H](O)[C@@H](C)[C@H](OC(C)=O)[C@@H]1C ... 19.2

----------
assay: Phase 1 Study ABI-1648-006, single oral dose pharmacokinetics; settings: female, human, plasma, po, 5 mg, Distribution t1/2 Mean, females, single oral dose 5 mg
RECORDED_METRIC: half-life (h)

1) CO[C@H]1/C=C/O[C@@]2(C)Oc3c(C)c(O)c4c(=O)c(c5oc6cc(N7CCN(CC(C)C)CC7)cc(O)c6nc-5c4c3C2=O)NC(=O)/C(C)=C\C=C\[C@H](C)[C@H](O)[C@@H](C)[C@@H](O)[C@@H](C)[C@H](OC(C)=O)[C@@H]1C [rifalazil] ... 4.5

----------
assay: Phase 1 Study ABI-1648-006, single oral dose pharmacokinetics; conditions: male, human, plasma, po, 2.5 mg, AUC0−∞ Mean, males, single oral dose 2.5 mg
RECORDED_METRIC: AUC(0-inf)

1) CO[C@H]1/C=C/O[C@@]2(C)Oc3c(C)c(O)c4c(=O)c(c5oc6cc(N7CCN(CC(C)C)CC7)cc(O)c6nc-5c4c3C2=O)NC(=O)/C(C)=C\C=C\[C@H](C)[C@H](O)[C@@H](C)[C@@H](O)[C@@H](C)[C@H](OC(C)=O)[C@@H]1C [rifalazil] ... 188 ng·h/mL

----------
test: Phase 1 Study ABI-1648-006, single oral dose pharmacokinetics; details: female, human, plasma, po, 2.5 mg, Distribution t1/2 Mean, females, single oral dose 2.5 mg
RECORDED_METRIC: half-life (h)

1. CO[C@H]1/C=C/O[C@@]2(C)Oc3c(C)c(O)c4c(=O)c(c5oc6cc(N7CCN(CC(C)C)CC7)cc(O)c6nc-5c4c3C2=O)NC(=O)/C(C)=C\C=C\[C@H](C)[C@H](O)[C@@H](C)[C@@H](O)[C@@H](C)[C@H](OC(C)=O)[C@@H]1C ... 5

----------
assay: Phase 1 Study ABI-1648-006, single oral dose pharmacokinetics; conditions: male, human, plasma, po, 2.5 mg
RECORDED_METRIC: CL/F (mL/min/kg)

1) CO[C@H]1/C=C/O[C@@]2(C)Oc3c(C)c(O)c4c(=O)c(c5oc6cc(N7CCN(CC(C)C)CC7)cc(O)c6nc-5c4c3C2=O)NC(=O)/C(C)=C\C=C\[C@H](C)[C@H](O)[C@@H](C)[C@@H](O)[C@@H](C)[C@H](OC(C)=O)[C@@H]1C [rifalazil] ... 3.5

----------
test: Phase 1 Study ABI-1648-006, single oral dose pharmacokinetics; conditions: male, human, plasma, po, 12.5 mg, Cmax Mean, males, single oral dose 12.5 mg
RECORDED_METRIC: Cmax

1. CO[C@H]1/C=C/O[C@@]2(C)Oc3c(C)c(O)c4c(=O)c(c5oc6cc(N7CCN(CC(C)C)CC7)cc(O)c6nc-5c4c3C2=O)NC(=O)/C(C)=C\C=C\[C@H](C)[C@H](O)[C@@H](C)[C@@H](O)[C@@H](C)[C@H](OC(C)=O)[C@@H]1C ... 19.7 ng/mL

----------
test: Phase 1 Study ABI-1648-006, single oral dose pharmacokinetics; details: female, human, plasma, po, 5 mg, AUC0−∞ GMean (geometric mean), females, single oral dose 5 mg
RECORDED_METRIC: AUC(0-inf) (ng·h/mL)

1. CO[C@H]1/C=C/O[C@@]2(C)Oc3c(C)c(O)c4c(=O)c(c5oc6cc(N7CCN(CC(C)C)CC7)cc(O)c6nc-5c4c3C2=O)NC(=O)/C(C)=C\C=C\[C@H](C)[C@H](O)[C@@H](C)[C@@H](O)[C@@H](C)[C@H](OC(C)=O)[C@@H]1C [rifalazil] ... 373

----------
assay: Phase 1 Study ABI-1648-006, multiple oral dose pharmacokinetics; settings: male, human, plasma, oral, 12.5 mg
RECORDED_METRIC: Tmax

1. CO[C@H]1/C=C/O[C@@]2(C)Oc3c(C)c(O)c4c(=O)c(c5oc6cc(N7CCN(CC(C)C)CC7)cc(O)c6nc-5c4c3C2=O)NC(=O)/C(C)=C\C=C\[C@H](C)[C@H](O)[C@@H](C)[C@@H](O)[C@@H](C)[C@H](OC(C)=O)[C@@H]1C [rifalazil] ... 6.2 h

----------
test: Phase 1 Study ABI-1648-006, multiple oral dose pharmacokinetics; conditions: female, human, plasma, oral, 12.5 mg
RECORDED_METRIC: Cmax (ng/mL)

1. CO[C@H]1/C=C/O[C@@]2(C)Oc3c(C)c(O)c4c(=O)c(c5oc6cc(N7CCN(CC(C)C)CC7)cc(O)c6nc-5c4c3C2=O)NC(=O)/C(C)=C\C=C\[C@H](C)[C@H](O)[C@@H](C)[C@@H](O)[C@@H](C)[C@H](OC(C)=O)[C@@H]1C ... 19.1

----------
assay: Tissue distribution in rats after a single oral dose (Study 6510-109); assay type: in vivo, rat; details: rat, liver, oral, 3 mg/kg; species not given; read-out: tissue to plasma ratio (AUC), liver
RECORDED_METRIC: Kp

1) CO[C@H]1/C=C/O[C@@]2(C)Oc3c(C)c(O)c4c(=O)c(c5oc6cc(N7CCN(CC(C)C)CC7)cc(O)c6nc-5c4c3C2=O)NC(=O)/C(C)=C\C=C\[C@H](C)[C@H](O)[C@@H](C)[C@@H](O)[C@@H](C)[C@H](OC(C)=O)[C@@H]1C ... 33.7

----------
experiment: Phase 1 Study ABI-1648-009, food effect on PK of single 25-mg oral dose; details: male, human, plasma, oral, 25 mg
RECORDED_METRIC: Tmax

1. CO[C@H]1/C=C/O[C@@]2(C)Oc3c(C)c(O)c4c(=O)c(c5oc6cc(N7CCN(CC(C)C)CC7)cc(O)c6nc-5c4c3C2=O)NC(=O)/C(C)=C\C=C\[C@H](C)[C@H](O)[C@@H](C)[C@@H](O)[C@@H](C)[C@H](OC(C)=O)[C@@H]1C ... ~3 h

----------
assay: Phase 1 Study ABI-1648-006, single oral dose pharmacokinetics; conditions: male, human, plasma, po, 2.5 mg, Elimination t1/2 Mean, males, single oral dose 2.5 mg
RECORDED_METRIC: half-life (h)

1) CO[C@H]1/C=C/O[C@@]2(C)Oc3c(C)c(O)c4c(=O)c(c5oc6cc(N7CCN(CC(C)C)CC7)cc(O)c6nc-5c4c3C2=O)NC(=O)/C(C)=C\C=C\[C@H](C)[C@H](O)[C@@H](C)[C@@H](O)[C@@H](C)[C@H](OC(C)=O)[C@@H]1C ... 101
